# kon listing for each entry below
- testSystem: T1, Recombinant MBP-mutCALR Type 1 fusion protein (human)
- T1 construct: custom made at Cepter; also called recombinant mutCALR protein
- experimentDescription: SPR, IgG captured, 1:1 fit, Exp. 2
Express it in M⁻¹ s⁻¹; write the number only.

The recorded kon for entry anti-mutCALR antibody clone 129 (antibody, human IgG1, lambda, N297A, V domains shown, human IgG1 N297A variant of clone 15) VH: EVQLVQSGAEVKKPGASVKVSCKVSGYTLTELSMQWVRQAPGKGLEWMGGFDPDDGETMYAEKFQGRLTVTEDTSTDTVYMELSSLRSEDTAVYFCATSPGYDFFDYWGQGTLVTVSS VL: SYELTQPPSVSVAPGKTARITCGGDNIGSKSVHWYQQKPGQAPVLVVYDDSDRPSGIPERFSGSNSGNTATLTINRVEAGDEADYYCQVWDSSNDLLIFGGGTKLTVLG equals 9.94e+06

The recorded kon for entry anti-mutCALR antibody clone 65 (antibody, human IgG1, lambda, N297A, V domains shown, human IgG1 N297A variant of clone 6) VH: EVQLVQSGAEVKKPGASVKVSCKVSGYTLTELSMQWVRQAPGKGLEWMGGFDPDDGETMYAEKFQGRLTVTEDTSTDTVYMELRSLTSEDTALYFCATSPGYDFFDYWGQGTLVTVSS VL: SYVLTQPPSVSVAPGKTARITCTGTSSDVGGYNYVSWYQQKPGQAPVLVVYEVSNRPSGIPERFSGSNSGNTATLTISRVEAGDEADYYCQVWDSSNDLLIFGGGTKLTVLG equals 4.6e+06

The recorded kon for entry anti-mutCALR antibody clone 125 (antibody, human IgG1, lambda, N297A, V domains shown, human IgG1 N297A variant of clone 15) VH: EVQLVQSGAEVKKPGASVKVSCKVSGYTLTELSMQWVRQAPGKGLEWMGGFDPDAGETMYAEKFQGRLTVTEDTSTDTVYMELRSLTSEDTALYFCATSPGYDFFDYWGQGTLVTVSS VL: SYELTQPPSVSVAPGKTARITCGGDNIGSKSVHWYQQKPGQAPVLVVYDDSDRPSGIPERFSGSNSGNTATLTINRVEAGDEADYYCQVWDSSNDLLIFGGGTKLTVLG equals 3.23e+06

The recorded kon for entry anti-mutCALR antibody clone 138 (antibody, human IgG1, lambda, N297A, V domains shown, human IgG1 N297A variant of clone 15) VH: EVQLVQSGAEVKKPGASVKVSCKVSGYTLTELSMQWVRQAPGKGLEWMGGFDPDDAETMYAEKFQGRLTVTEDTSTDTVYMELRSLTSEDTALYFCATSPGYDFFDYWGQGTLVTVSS VL: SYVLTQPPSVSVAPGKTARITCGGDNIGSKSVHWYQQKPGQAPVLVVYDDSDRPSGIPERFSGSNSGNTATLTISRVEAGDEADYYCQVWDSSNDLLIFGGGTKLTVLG equals 7.86e+06

The recorded kon for entry anti-mutCALR antibody clone 72 (antibody, human IgG1, lambda, N297A, V domains shown, human IgG1 N297A variant of clone 6) VH: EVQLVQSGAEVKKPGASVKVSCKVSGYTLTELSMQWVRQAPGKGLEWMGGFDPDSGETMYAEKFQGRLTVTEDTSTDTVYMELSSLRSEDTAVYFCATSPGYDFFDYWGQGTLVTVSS VL: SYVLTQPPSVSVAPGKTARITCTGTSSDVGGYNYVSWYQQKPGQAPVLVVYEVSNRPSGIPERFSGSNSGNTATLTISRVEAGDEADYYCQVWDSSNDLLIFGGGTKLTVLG equals 1.02e+06

***
The recorded kon for entry anti-mutCALR antibody clone 82 (antibody, human IgG1, lambda, N297A, V domains shown, human IgG1 N297A variant of clone 6) VH: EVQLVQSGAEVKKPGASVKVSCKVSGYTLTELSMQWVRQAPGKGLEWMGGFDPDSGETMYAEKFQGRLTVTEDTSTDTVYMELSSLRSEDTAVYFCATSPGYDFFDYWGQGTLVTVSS VL: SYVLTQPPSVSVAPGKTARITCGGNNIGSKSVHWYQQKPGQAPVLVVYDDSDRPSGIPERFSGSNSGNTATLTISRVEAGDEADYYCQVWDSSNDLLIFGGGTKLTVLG equals 762000

The recorded kon for entry anti-mutCALR antibody clone 187 (antibody, human IgG1, lambda, N297A, V domains shown, human IgG1 N297A variant of clone 17) VH: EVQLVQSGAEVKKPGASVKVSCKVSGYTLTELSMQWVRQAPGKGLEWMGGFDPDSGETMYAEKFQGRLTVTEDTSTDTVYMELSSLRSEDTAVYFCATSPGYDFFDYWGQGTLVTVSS VL: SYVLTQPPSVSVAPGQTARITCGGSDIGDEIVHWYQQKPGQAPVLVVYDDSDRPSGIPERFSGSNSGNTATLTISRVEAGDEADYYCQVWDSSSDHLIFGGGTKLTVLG equals 1e+07

The recorded kon for entry anti-mutCALR antibody clone 79 (antibody, human IgG1, lambda, N297A, V domains shown, human IgG1 N297A variant of clone 6) VH: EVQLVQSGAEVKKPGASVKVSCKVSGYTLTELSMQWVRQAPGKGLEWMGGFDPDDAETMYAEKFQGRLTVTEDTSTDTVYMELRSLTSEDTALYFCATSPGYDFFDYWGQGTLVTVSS VL: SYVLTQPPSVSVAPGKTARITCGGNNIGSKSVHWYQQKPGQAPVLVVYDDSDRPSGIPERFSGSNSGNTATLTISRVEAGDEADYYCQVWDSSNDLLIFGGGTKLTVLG equals 4.53e+06

The recorded kon for entry anti-mutCALR antibody clone 71 (antibody, human IgG1, lambda, N297A, V domains shown, human IgG1 N297A variant of clone 6) VH: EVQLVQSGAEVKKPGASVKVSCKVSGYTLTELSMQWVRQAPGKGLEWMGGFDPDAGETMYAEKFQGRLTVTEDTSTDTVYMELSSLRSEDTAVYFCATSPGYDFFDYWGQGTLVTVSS VL: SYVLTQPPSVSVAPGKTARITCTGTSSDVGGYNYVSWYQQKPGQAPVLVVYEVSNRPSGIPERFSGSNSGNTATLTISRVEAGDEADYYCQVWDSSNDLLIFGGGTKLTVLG equals 4.63e+06

The recorded kon for entry anti-mutCALR antibody clone 68 (antibody, human IgG1, lambda, N297A, V domains shown, human IgG1 N297A variant of clone 6) VH: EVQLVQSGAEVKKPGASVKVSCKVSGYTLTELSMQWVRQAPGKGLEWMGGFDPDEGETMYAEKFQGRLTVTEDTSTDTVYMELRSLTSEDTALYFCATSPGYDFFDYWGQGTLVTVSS VL: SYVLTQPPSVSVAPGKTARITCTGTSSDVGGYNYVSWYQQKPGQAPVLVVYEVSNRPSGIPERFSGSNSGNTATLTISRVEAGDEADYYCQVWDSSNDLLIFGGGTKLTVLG equals 1.44e+06
